Hello, the source for this data is paper PMC5540273, in case you need it.

test system: GAK; details: concentration: 1 μM, replicates: in singlicate; n = 1;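 further: KINOMEscan kinase panel screen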
Label yes when %Inh is strictly below 3%; at or above that, label no.

- Cn1cc(-c2ccc3c(c2)CCN3C(=O)Cc2cccc(F)c2)c2c(N)ncnc21 [GSK2603358]: no
- Cn1cc(-c2[nH]c3cc(NC(=O)[C@H](N)C4CCCCC4)cc4c3c2C=NNC4=O)cn1: no
- COCCOCCOc1cc2ncc3c4ccc(C#N)cc4[nH]c3c2cc1OC: no
- c1ccc(-c2cnc3nccnn23)cc1 [AH20685]: yes
- Cl.c1ccc(-c2ccc3c(Nc4ccc5[nH]ccc5c4)ccnc3c2)nc1 [GW440138]: no
- O=C(Nc1cccc(-c2nn3ccccc3c2-c2ccnc(Nc3cccc(F)c3)n2)c1)c1c(F)ccc(F)c1Cl [GSK357952]: no

---

# %Inh per entry
tested on: GCN2(Kin.Dom.2,S808G); construct: gene EIF2AK4; conditions: concentration: 1 μM, replicates: in singlicate; n = 1
readout-label: %Inh (%)

• COc1cccc(C(=O)Nc2cccc(Oc3ccc4nc(NC(=O)C5CC5)cn4n3)c2)c1 = 22
• NCCCC(NC(=O)c1cc(Br)c(-c2ccnc3[nH]ccc23)s1)c1ccccc1.O=C(O)C(F)(F)F.O=C(O)C(F)(F)F (centres unmarked) = 7
• CN1CCN(Cc2cccc(-c3ccc4c(Nc5ccc(Oc6ccccc6)cc5)ccnc4c3)c2)CC1 = 0
• O=C(Nc1cccc(-c2nn3ccccc3c2-c2ccnc(Nc3cccc(F)c3)n2)c1)c1c(F)ccc(F)c1Cl = 1
• Cc1ccc(F)c(C(=O)Nc2cccc(-c3nn4ccccc4c3-c3ccnc(Nc4cccc(F)c4)n3)c2)c1F = 11
• Cn1cc(-c2ccc3c(c2)CCN3C(=O)Cc2cccc(F)c2)c2c(N)ncnc21 = 33
• c1ccc(-c2n[nH]cc2Nc2ccnc3ccccc23)nc1 = 0
• Cl.Cl.NCC(NCc1ccc(-c2ccnc3[nH]ccc23)s1)c1ccccc1 (centres unmarked) = 0
• FC(F)(F)c1ccc(/C=C/c2cncnc2Nc2ccc3[nH]c(Cc4ccccc4)nc3c2)cc1 = 0
• CN(c1ccc(NC(=O)Nc2cc(C(F)(F)F)ccc2F)cc1)c1ccnc(Nc2ccc(S(N)(=O)=O)cc2)n1 = 0
• COc1cc(Nc2nccc(-c3c(-c4cccc(NC(=O)c5c(F)cccc5F)c4)nn4ccccc34)n2)cc(OC)c1OC = 29
• C[C@@H]1CC[C@@H](C(=O)Nc2ccccc2)CN1c1cc(-c2ccc3c(N)n[nH]c3c2)nc(N)n1 = 0
• Cl.c1ccc(-c2ccc3c(Nc4ccc5[nH]ccc5c4)ccnc3c2)nc1 = 0
• Nc1ncnc2c1nc(-c1ccccc1)n2-c1ccccc1 = 0
• Nc1ncc(-c2ccc3nccc(-c4ccncc4)c3c2)cc1S(=O)(=O)N1CCOCC1 = 3
• O=C(Nc1n[nH]c2nc(-c3ccc(O)cc3)ccc12)C1CC1 = 0
• COc1cccc(C2=C(Nc3ccc(Cl)c(C(=O)O)c3)C(=O)NC2=O)c1 = 100

---

# %Inh per entry
tested on: TXK; conditions: concentration: 1 μM, replicates: in singlicate; n = 1
readout-label: %Inh

* Cl.c1ccc(-c2ccc3c(Nc4ccc5[nH]ncc5c4)ccnc3c2)nc1 | 74%
* Clc1ccc(-c2nn3ncccc3c2-c2ccnc(Nc3ccc4c(c3)OCCO4)n2)cc1 | 0%
* COc1cccc(C(=O)Nc2cccc(Oc3ccc4nc(NC(=O)C5CC5)cn4n3)c2)c1 | 37%
* Cc1ccc(C(=O)Nc2ccc(Nc3ccnc4cc(-c5nccs5)ccc34)cc2O)cc1.Cl | 52%
* Cc1ccc(C(=O)N2CC[C@@H](O)C2)cc1-n1c(C)cc(OCc2ccc(F)cc2F)c(Br)c1=O | 0%
* CCCCc1nn2ncccc2c1-c1ccnc(Nc2ccc(N3CCN(C)CC3)cc2)n1 | 74%
* c1ccc(Oc2ccc(Nc3ccnc4cc(-c5ccc(CNCCN6CCOCC6)o5)ccc34)cc2)nc1 | 1%
* COc1cc(Nc2nccc(N3CCC(NC(=O)c4cc5ccccc5s4)C3)n2)cc(OC)c1OC (centres unmarked) | 0%
